- Tested on: DIV14
- EXPERIMENTAL PROTOCOL: qHTS profiling for inhibitors of Plasmodium falciparum proliferation (AID 504749); further: nearly all actives have a fitted effect of over 60% in size
- STUDY CONDITIONS: P. falciparum in erythrocytes, SYBR Green DNA, 72 h; series mostly up to 28.7 µM
Records with an inconclusive call do not appear. Active and inactive are the calls of the source. The call rests on the fitted dose curve; in most records, active means well fitted inhibition curve with a large enough effect; inconclusive means small, poorly fitted or top-dose-only effect; inactive means flat fitted curve, though single readings scatter.
Result category, one only: active, inactive

[[record]]
compound = "CCCCN1CCCC1C(=O)Nc1c(C)cc(C)cc1C (stereo unspecified)"
class_assignment = "inactive"


Query string: What was the test verdict on CC(C)(C)CC(C)(C)c1ccc(O)c(Cc2ccc(Cl)cc2Cl)c1 ?
Result string: active

Query string: Recorded test outcome, item CC1(C)CCC(NC(=O)[C@@H](N)CCC(=O)O)CC1
Result string: inactive

Query string: Given COc1cccc(CCc2ccccc2OCC(CN(C)C)OC(=O)CCC(=O)O)c1 (stereo unspecified) , state the outcome it received in this test.
Result string: active

Query string: For CCCCCCCCCCOCC(O)CN (stereo unspecified) , what call appears in the results of this test?
Result string: active

Query string: I'd appreciate the recorded outcome for CC[N+](CC)(CCNC(=O)C(=O)NCC[N+](CC)(CC)Cc1ccccc1Cl)Cc1ccccc1Cl from this test.
Result string: active

====

- TEST SYSTEM: Hexokinase-4 (Homo sapiens) + Glucokinase regulatory protein (Homo sapiens) (UniProt P35557+Q14397)
- Sequence (P35557 whole entry, looked up): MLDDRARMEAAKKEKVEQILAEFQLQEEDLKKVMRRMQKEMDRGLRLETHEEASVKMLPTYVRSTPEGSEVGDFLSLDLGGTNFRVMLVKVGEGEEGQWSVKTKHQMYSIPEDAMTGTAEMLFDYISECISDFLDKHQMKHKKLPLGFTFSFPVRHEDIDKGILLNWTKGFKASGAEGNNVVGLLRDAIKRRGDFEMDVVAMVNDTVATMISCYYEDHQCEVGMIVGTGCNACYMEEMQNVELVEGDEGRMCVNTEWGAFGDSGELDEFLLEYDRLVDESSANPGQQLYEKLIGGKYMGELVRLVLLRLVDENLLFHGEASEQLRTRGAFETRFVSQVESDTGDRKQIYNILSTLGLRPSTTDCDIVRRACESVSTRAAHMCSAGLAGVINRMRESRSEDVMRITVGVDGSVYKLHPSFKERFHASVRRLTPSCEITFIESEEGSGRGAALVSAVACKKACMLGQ
- Sequence (Q14397 whole entry, looked up): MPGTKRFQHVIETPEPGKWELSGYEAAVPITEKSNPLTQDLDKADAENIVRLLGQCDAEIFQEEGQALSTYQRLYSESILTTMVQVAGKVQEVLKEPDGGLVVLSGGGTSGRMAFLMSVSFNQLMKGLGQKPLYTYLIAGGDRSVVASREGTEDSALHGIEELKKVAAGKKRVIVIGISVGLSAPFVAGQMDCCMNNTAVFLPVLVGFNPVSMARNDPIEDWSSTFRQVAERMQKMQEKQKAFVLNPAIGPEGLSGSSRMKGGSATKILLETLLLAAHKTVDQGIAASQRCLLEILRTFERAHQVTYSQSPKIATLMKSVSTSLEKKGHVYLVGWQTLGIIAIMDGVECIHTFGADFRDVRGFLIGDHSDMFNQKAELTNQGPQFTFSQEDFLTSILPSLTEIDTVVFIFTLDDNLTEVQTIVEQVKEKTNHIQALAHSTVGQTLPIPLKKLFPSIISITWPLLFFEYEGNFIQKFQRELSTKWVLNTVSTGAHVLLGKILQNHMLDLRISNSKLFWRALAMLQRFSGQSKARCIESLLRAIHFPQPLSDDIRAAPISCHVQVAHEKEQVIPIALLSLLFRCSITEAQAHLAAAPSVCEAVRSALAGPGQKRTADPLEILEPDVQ
- EXPERIMENTAL PROTOCOL: qHTS assay for inhibitors of recombinant human GCK-GKRP interaction: HTRF assay (AID 743207)
- STUDY CONDITIONS: recombinant GCK-GKRP HTRF binding, 60 min, with sorbitol-6-phosphate; series mostly up to 57.5 µM
Calls of active or inactive are those of the source. The call rests on the fitted dose curve; in most records, active means well fitted curve in the direction sought with a large enough effect; inconclusive means small, poorly fitted or top-dose-only effect, or another doubt; inactive means no such curve, though single readings can be large or run the other way.
MEASURE NAME: outcome

[[record]]
structure_smiles_string = "CC[C@H](C)C(=O)O[C@H]1CCC=C2C=C[C@H](C)[C@H](CC[C@@H]3C[C@@H](O)CC(=O)O3)[C@H]21"
reading = "inactive"

[[record]]
structure_smiles_string = "C1CCc2nnnn2CC1"
reading = "inactive"

[[record]]
structure_smiles_string = "COC(=O)[C@H]1[C@H]2C[C@H]3c4[nH]c5ccccc5c4CCN3C[C@H]2CC[C@@H]1O"
reading = "inactive"


====

- Tested on: Tov-21-G
- EXPERIMENTAL PROTOCOL: Primary qHTS to identify gynecologic anti-cancer compounds using libraries of approved drugs and bioactive compounds (AID 1345084); further: nearly all actives have a fitted effect of over 55% in size
- STUDY CONDITIONS: Gynecologic cancer cell panel viability, ATPlite luminescence, 48 h; series mostly up to 57.5 µM
Inconclusive results are not listed. The source made the active and inactive calls. The call rests on the fitted dose curve; in most records, active means well fitted cell-killing curve with a large enough effect; inconclusive means small, poorly fitted or top-dose-only effect, or effect the other way; inactive means flat fitted curve, though single readings scatter.
Log the outcome using a class from Y = active, N = inactive

[[record]]
compound = "c1ccc(-c2ccc(C(c3ccccc3)n3ccnc3)cc2)cc1 (stereo not drawn)"
class_assignment = "N"


Query string: Outcome? CCOc1ccc(Cc2nccc3cc(OCC)c(OCC)cc23)cc1OCC
Result string: N

Query string: Which outcome was assigned to Cc1ncc(CSSCc2cnc(C)c(O)c2CO)c(CO)c1O in this test?
Result string: N

Query string: Would you mind telling me which call this test gave COc1c(C)c2c(c(O)c1C/C=C(\C)CCC(=O)O)C(=O)OC2 ?
Result string: Y

Query string: Given CN1[C@@H]2CC[C@H]1CC(OC(=O)c1c[nH]c3ccccc13)C2 (stereo partly drawn) , state the outcome it received in this test.
Result string: N

Query string: Per the records of this test, what outcome belongs to COc1cc(OC)cc(OC)c1 ?
Result string: N

Query string: Record lookup: outcome of this test for O=C1[C@H]2CCCC[C@H]2C(=O)N1CCCCN1CCN(c2nsc3ccccc23)CC1 ?
Result string: N

Query string: Which outcome was entered for the compound C[C@@H]1C[C@H]2[C@@H]3C[C@H](F)C4=CC(=O)C(Cl)=C[C@]4(C)[C@@]3(F)[C@@H](O)C[C@]2(C)[C@@]1(O)C(=O)CO in this test?
Result string: N

Query string: // param item: CC[N+](CC)(CCNC(=O)C(=O)NCC[N+](CC)(CC)Cc1ccccc1Cl)Cc1ccccc1Cl ; yields the recorded call
Result string: N

Query string: Check the results log: what was the call for CCCOC(C(=O)OC1CCN(C)CC1)(c1ccccc1)c1ccccc1 ?
Result string: N

Query string: Entry Cc1c(C)n(Cc2ccccc2)c2ccc(C(=O)OCCN(C)C)cc12 : call = ?
Result string: N

Query string: Returns: the outcome recorded for O=C(OCC(O)CO)c1ccccc1Nc1ccnc2cc(Cl)ccc12 (stereo not drawn) in this assay.
Result string: N

Query string: Given CCN1CCN(c2cc3c(cc2F)c(=O)c(C(=O)O)cn3C2CC2)CC1 , state the outcome it received in this test.
Result string: N

Query string: // outcome(item) with item = C[C@]12CC[C@H]3[C@@H](CCC4=CC(=O)CC[C@@]43C)[C@@H]1CC[C@@H]2C(=O)CO
Result string: N

Query string: Which outcome was entered for the compound CCOC(=O)n1ccn(C)c1=S in this test?
Result string: N

====

- TEST SYSTEM: Luciferin 4-monooxygenase (Photinus pyralis)
- EXPERIMENTAL PROTOCOL: Biochemical firefly luciferase enzyme assay for NPC (AID 624030);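 further: purified P. pyralis luciferase at 10 nM with luciferin and ATP substrate; nearly all actives have a fitted effect of over 70% in size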
- STUDY CONDITIONS: purified P. pyralis luciferase, luminescence, 5 min; series mostly up to 58.6 µM
Results filed as inconclusive are left out. Activity calls are given as the source filed them. The call rests on the fitted dose curve; in most records, active means well fitted inhibition curve with a large enough effect; inconclusive means small, poorly fitted or top-dose-only effect; inactive means flat fitted curve, though single readings scatter.
MEASURE NAME: outcome

Below: 9 molecules and their reported outcome.
[[record]]
structure_smiles_string = "NCCc1ccn[nH]1"
measure_name = "outcome"
reading = "inactive"

[[record]]
structure_smiles_string = "Nc1ccc(C(=O)Nc2ccccc2N)cc1"
measure_name = "outcome"
reading = "inactive"

[[record]]
structure_smiles_string = "CCCCCCC[N+](CC)(CC)CCCCc1ccc(Cl)cc1"
measure_name = "outcome"
reading = "inactive"

[[record]]
structure_smiles_string = "OCc1ccccc1O"
measure_name = "outcome"
reading = "inactive"

[[record]]
structure_smiles_string = "CN1CCN(CCCN2c3ccccc3Sc3ccc(S(=O)(=O)N(C)C)cc32)CC1"
measure_name = "outcome"
reading = "inactive"

[[record]]
structure_smiles_string = "C=CCc1ccc(O)c(OC)c1"
measure_name = "outcome"
reading = "inactive"

[[record]]
structure_smiles_string = "CCN1CCC[C@H]1CNC(=O)c1c(OC)ccc(Br)c1OC"
measure_name = "outcome"
reading = "inactive"

[[record]]
structure_smiles_string = "N[C@H](Cc1c[nH]c2ccccc12)C(=O)O"
measure_name = "outcome"
reading = "inactive"

[[record]]
structure_smiles_string = "O=S1(=O)c2cccc3cccc(c23)N1CCCN1CCN(c2ccc(F)cc2)CC1"
measure_name = "outcome"
reading = "inactive"


Let's switch to this molecule now.
Short answer for Oc1ccc(O)cc1 : outcome was inactive

====

- TEST SYSTEM: Rap guanine nucleotide exchange factor 4 (Homo sapiens) (UniProt Q8WZA2)
- Sequence (Q8WZA2 whole entry, looked up): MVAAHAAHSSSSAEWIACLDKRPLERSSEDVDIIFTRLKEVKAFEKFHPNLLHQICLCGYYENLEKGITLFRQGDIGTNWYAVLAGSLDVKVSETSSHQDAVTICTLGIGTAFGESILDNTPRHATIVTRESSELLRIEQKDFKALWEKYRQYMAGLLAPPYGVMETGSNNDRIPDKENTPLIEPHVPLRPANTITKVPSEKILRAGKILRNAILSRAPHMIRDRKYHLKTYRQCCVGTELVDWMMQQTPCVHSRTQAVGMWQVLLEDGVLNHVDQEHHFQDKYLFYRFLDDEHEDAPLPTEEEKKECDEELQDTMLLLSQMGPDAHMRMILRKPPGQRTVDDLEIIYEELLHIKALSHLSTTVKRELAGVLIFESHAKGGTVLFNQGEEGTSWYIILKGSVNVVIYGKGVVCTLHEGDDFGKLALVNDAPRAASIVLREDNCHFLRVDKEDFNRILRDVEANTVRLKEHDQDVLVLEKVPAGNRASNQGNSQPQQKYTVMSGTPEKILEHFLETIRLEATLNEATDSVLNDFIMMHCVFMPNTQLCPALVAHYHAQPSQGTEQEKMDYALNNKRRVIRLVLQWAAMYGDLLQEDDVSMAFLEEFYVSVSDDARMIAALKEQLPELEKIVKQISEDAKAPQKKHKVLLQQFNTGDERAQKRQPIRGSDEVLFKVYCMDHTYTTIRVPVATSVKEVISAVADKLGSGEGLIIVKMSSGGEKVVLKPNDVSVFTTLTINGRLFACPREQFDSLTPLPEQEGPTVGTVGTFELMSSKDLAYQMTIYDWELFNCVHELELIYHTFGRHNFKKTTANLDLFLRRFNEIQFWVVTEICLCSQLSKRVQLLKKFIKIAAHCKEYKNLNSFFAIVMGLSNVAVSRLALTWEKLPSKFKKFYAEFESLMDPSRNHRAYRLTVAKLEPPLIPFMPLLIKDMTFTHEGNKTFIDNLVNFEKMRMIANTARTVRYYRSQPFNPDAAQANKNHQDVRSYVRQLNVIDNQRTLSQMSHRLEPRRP
- EXPERIMENTAL PROTOCOL: Confirmatory qHTS for antagonist of cAMP-regulated guanine nucleotide exchange factor 4 (EPAC2) (AID 1645885); further: nearly all actives have a fitted effect of over 25% in size
- STUDY CONDITIONS: EPAC2 Rap1B-BODIPY-GDP exchange fluorescence, biochemical; series mostly up to 114 µM
Records with an inconclusive call do not appear. Calls of active or inactive are those of the source. Calls follow the shape of the dose curve; as a rule, active = well fitted inhibition curve with a large enough effect; inconclusive = small, poorly fitted or top-dose-only effect; inactive = no such curve, though single readings can be large or run the other way.
Choose the fitting class; nothing outside True = active, False = inactive is accepted.

[[record]]
molecule = "CC(=O)Oc1ccc2c(c1)CC[C@@H]1[C@@H]2CC[C@]2(C)[C@@H](O)CC[C@@H]12"
test_system = "Rap guanine nucleotide exchange factor 4 (Homo sapiens) (UniProt Q8WZA2)"
class_assignment = "False"

[[record]]
molecule = "COc1cc2c(cc1O)CC[C@@H]1[C@@H]2CC[C@]2(C)[C@@H](O)CC[C@@H]12"
test_system = "Rap guanine nucleotide exchange factor 4 (Homo sapiens) (UniProt Q8WZA2)"
class_assignment = "False"


Query string: // outcome(item) with item = C[n+]1c2cc(N)ccc2cc2ccc(N)cc21 (tested in a mixture with another compound)
Result string: False

Query string: What did this assay record as the result for CCCCCCc1ccc(O)cc1O ?
Result string: True

Query string: Write down the call the test reported for this molecule. Item: CC(Cc1cccc(C(F)(F)F)c1)NCCOC(=O)c1ccccc1 (stereo not given)
Result string: True

====

- EXPERIMENTAL PROTOCOL: qHTS of pediatric cancer cell lines to identify multiple opportunities for drug repurposing: Confirmatory screen for control Hh wild type fibroblast cells (AID 1347121); further: nearly all actives have a fitted effect of over 70% in size; further: potency means the concentration at half of the fitted maximal effect
- STUDY CONDITIONS: viability qHTS; series mostly up to 45.9 µM
Records with an inconclusive call do not appear. Calls of active or inactive are those of the source. The call rests on the fitted dose curve; in most records, active means well fitted cell-killing curve with a large enough effect; inconclusive means small, poorly fitted or top-dose-only effect, or effect the other way; inactive means flat fitted curve, though single readings scatter.
MEASURE NAME: Potency

Worked set:
[[record]]
molecule = "C=C1C[C@H]2[C@@H]3C=C(C)C4=CC(=O)CC[C@]4(C)[C@H]3CC[C@]2(C)[C@@]1(OC(C)=O)C(C)=O"
reading = "inactive"

[[record]]
molecule = "CN(C)C(=S)SC(=S)N(C)C"
reading = "inactive"

[[record]]
molecule = "CCCCC(CC)CN=C(N)NC(N)=NCCCCCCN=C(N)NC(N)=NCC(CC)CCCC (stereo not given)"
reading = "2930 nM (active)"

[[record]]
molecule = "COCc1c(C(C)C)nc(C(C)C)c(/C=C/[C@@H](O)C[C@@H](O)CC(=O)O)c1-c1ccc(F)cc1"
reading = "inactive"


# molecule CC(C)(C(=O)c1cccnc1)c1cccnc1 ; its Potency = inactive
